- Test system: NCBI gene 100848466
- Procedure summary: NVS_NR_bPR: NovaScreen (NVS) Nuclear Receptor Binding Assay for bovine Progextron Receptor (PR) (AID 2283343)
Records with an inconclusive call do not appear. Calls of active or inactive are those of the source. How the source made its calls: active means hit-call score of the fitted dose curve at least 0.9, where 1 is the maximum; inconclusive means response in the unintended direction; inactive means score below 0.9.
Use one of these outcomes when replying: active, inactive

[[record]]
line_notation = "Cc1ccc2oc(CN(Cc3ccccc3)C(=O)Nc3c(F)cc(F)cc3F)c(-c3ccc(Cl)cc3)c2c1"
measurement_target = "NCBI gene 100848466"
category_label = "inactive"

[[record]]
line_notation = "C[C@]12CC[C@@H]3c4ccc(O)cc4CC[C@H]3[C@@H]1CC[C@H]2O"
measurement_target = "NCBI gene 100848466"
category_label = "active"

[[record]]
line_notation = "Cc1cc(F)ccc1-c1cc(N2CC[C@@H](O)[C@H]2CO)ncc1N(C)C(=O)C(C)(C)c1cc(C(F)(F)F)cc(C(F)(F)F)c1"
measurement_target = "NCBI gene 100848466"
category_label = "active"


Next molecule, please.
Prompt line: So what was the verdict on "CCN(Cc1cccnc1)C(=O)c1cccc(Cl)c1[C@]1(C)C(=O)N(Cc2ccc(OC)cc2OC)c2ccc(Cl)cc21" in this test?
Response line: active

* * *

- Procedure summary: CEETOX_H295R_11DCORT: CeeTox H295R High-throughput Steroidogenesis Assay for 11-Deoxycortisol (11DCORT) (AID 2283432)
- Assay setup: actives raise or lower the signal
Calls of active or inactive are those of the source. The calls were made as follows: active = hit-call score of the fitted dose curve at least 0.9, where 1 is the maximum; inactive = score below 0.9.
Use one of these outcomes when replying: T for active, F for inactive

Would you please look over these solved cases?
[[record]]
compound = "CC(C)(C)c1cc(/C=C2\\SC(N)=NC2=O)cc(C(C)(C)C)c1O"
category_label = "F"

[[record]]
compound = "CCCCCCCCCCCC[N+](C)(C)C"
category_label = "F"

[[record]]
compound = "Cc1cc2c(cc1C(F)(F)F)N(C(=O)Nc1ccc(Oc3cccnc3C)nc1)CC2"
category_label = "T"

[[record]]
compound = "O=C(O)Cn1c(=O)n(Cc2ccc(Br)cc2F)c(=O)c2ccc(Cl)cc21"
category_label = "F"


Prompt line: Field: outcome | Entry: "Oc1ccc2ccccc2c1"
Response line: F

Prompt line: Moving on to "NC(=O)c1nc(-c2cccc(-c3cc(F)ccc3OCC(F)(F)C(F)(F)F)c2)n[nH]1"
Response line: F

Prompt line: # iterate: "Cc1oc2c(NC(=O)c3c(Cl)cccc3Cl)cccc2c1C(C)(C)O"
Response line: T

Prompt line: Please answer likewise for "CCCCCCCCOC(=O)c1cc(O)c(O)c(O)c1"
Response line: F

Prompt line: Same for "O=C1CCC(C2CCCCC2)CC1"
Response line: F

Prompt line: Can you check CN1C(=O)N(c2ccccc2Br)Cc2cnc(Nc3ccc4c(c3)OCC(CO)O4)nc21 (configuration not stated) next?
Response line: T

Prompt line: Now give it for "Cc1ccc2oc(CN(Cc3ccccc3)C(=O)Nc3c(F)cc(F)cc3F)c(-c3ccc(Cl)cc3)c2c1" too.
Response line: F

Prompt line: Entry to check: "C[C@]12CC[C@@H]3c4ccc(O)cc4CC[C@H]3[C@@H]1CC[C@H]2O"
Response line: T

* * *

- Measurement target: Retinoic acid receptor RXR-alpha (Homo sapiens) (UniProt P19793)
- Sequence (P19793 whole entry, looked up): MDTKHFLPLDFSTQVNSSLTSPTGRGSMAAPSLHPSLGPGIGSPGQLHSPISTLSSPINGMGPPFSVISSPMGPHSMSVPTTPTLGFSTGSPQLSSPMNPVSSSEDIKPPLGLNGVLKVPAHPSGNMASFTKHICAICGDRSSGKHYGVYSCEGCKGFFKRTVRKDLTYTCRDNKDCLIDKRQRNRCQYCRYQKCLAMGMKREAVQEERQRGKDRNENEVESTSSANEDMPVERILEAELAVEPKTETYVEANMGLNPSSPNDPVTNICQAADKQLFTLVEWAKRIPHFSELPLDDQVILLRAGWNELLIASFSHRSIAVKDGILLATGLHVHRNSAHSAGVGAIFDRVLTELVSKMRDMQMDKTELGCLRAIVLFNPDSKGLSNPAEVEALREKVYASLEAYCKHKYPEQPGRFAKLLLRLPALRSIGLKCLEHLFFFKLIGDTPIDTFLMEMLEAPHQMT
- Procedure summary: OT_NURR1_NURR1RXRa_0480: Odyssey Thera (OT) 8-hour HEK293T Protein Complementation Assay for Nurr1/retinoid X receptor (RXR) (AID 2283385)
Results filed as inconclusive are left out. Calls of active or inactive are those of the source. The calls were made as follows: active = hit-call score of the fitted dose curve at least 0.9, where 1 is the maximum; inconclusive = response in the unintended direction; inactive = score below 0.9.
// classify into active, inactive

Prompt line: GET /call?item= OC12N=C(c3ccccc3)SC1Cc1cc(Cl)ccc12 (stereo unspecified) returns the recorded outcome of this test.
Response line: inactive

Prompt line: Now give it for "Cc1cn([C@H]2C[C@H](N=[N+]=[N-])[C@@H](CO)O2)c(=O)[nH]c1=O" too.
Response line: inactive

Prompt line: Would you mind doing "Cc1ccc(C(C)C)cc1" as well?
Response line: inactive

Prompt line: Quick one: "O=C(O)c1ccccc1C(=O)OCc1ccccc1"
Response line: inactive

Prompt line: Likewise for "CCN(Cc1cccnc1)C(=O)c1cccc(Cl)c1[C@]1(C)C(=O)N(Cc2ccc(OC)cc2OC)c2ccc(Cl)cc21" ?
Response line: inactive

Prompt line: Then this compound: "C[C@]12CC[C@@H]3c4ccc(O)cc4CC[C@H]3[C@@H]1CC[C@H]2O"
Response line: inactive

Prompt line: Now this one: "CC[C@@H]1C[C@H](N(Cc2cc(C(F)(F)F)cc(C(F)(F)F)c2)C(C)=O)c2cc(C(F)(F)F)ccc2N1C(=O)OC(C)C"
Response line: inactive

Prompt line: Try this compound next: "Cc1occc1C(=O)Nc1ccc(C(=O)N2CCC(F)(F)/C(=C\C(=O)N3CCC(N4CCCCC4)CC3)c3ccccc32)cc1"
Response line: active

Prompt line: Similarly, "CC1(C)NC(=O)N(c2ccc([N+](=O)[O-])c(C(F)(F)F)c2)C1=O" ?
Response line: inactive

Prompt line: Moving on to the next compound: "O=CCCCC=O"
Response line: active
